- run-description: amyloid nucleation score (Sup35N fusion, yeast selection) (log enrichment); library NNK2; higher = more nucleation; inactive = no reads after selection;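 further: zero at mode of non-aggregating sequences after 7 days selection at 30°C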
readout: amyloid nucleation score
Format: numeric value only, no unit, no commentary.

Past entries and their recorded results:
Need amyloid nucleation score of "VYRQNLNLNME" , thanks.
0.189

Returns the measured amyloid nucleation score for the input substance. Input: "GNVFEHIQSMIRDSFEEHSG"
0.889

I have this substance here, "QRGRGERMFITQCLVDRMCF" , and I need its recorded amyloid nucleation score.
-0.117

amyloid nucleation score lookup needed for "YYSFPISIGWVSNCMFVWEV" , thanks.
6.53

Fill in the blank: the reported amyloid nucleation score of "CNMFDCCK" is ____.
0.175

Further cases:
What value of amyloid nucleation score has been recorded for this entry: "YFSGCSSFVS"
-0.046

Entry "CMSAIFLPMIEF" has what amyloid nucleation score?
-0.714

Entry under review: "SVIEISECLERVVRWHRVAG" . Reported amyloid nucleation score?
1.76

Using the record for "RYWWRVRIYFVCCVSSLDWV" , report its amyloid nucleation score.
7.09

Using the record for "FPNKITVIPSHTSRDNVNTL" , report its amyloid nucleation score.
0.261

Name the reported amyloid nucleation score value associated with the substance "RRMVMVSANVSLIEQHYCRN"
5.55

Entry "WAVSATWWNFLSVYRKLSDL" has what amyloid nucleation score?
-0.095

For the substance shown here, "LRLGHVIPGVKNCREEND" , give the reported amyloid nucleation score.
-0.745

Could you share which amyloid nucleation score value was measured for "ASVRENFYIGLCRKCYYHNP" ?
1.59

Given "FEFMNDFQSYVRMFRCLVFL" , state its recorded amyloid nucleation score.
-0.401

Entry "NLNFPMRSSILDCAGDNVRR" : reported amyloid nucleation score = ?
0.49

Look up amyloid nucleation score for this substance: "MSKGVYIYNIYYLVMSGVPL"
4.9

----------
- run-description: amyloid nucleation score (Sup35N fusion, yeast selection) (log enrichment); library NNK3; higher = more nucleation; inactive = no reads after selection
readout: amyloid nucleation score

// worked examples, amyloid nucleation score included
Quick one: amyloid nucleation score of "CCIKGHFPSSFGSWAKYLHV" ?
inactive

Record request: amyloid nucleation score value, item "KNIKTSIIYSYYALIIR"
2.47

Tell me the measured amyloid nucleation score of "SGSRLGHCSSLTMKSSLSVD" , please.
1.06

Could you tell me which amyloid nucleation score is on file for "RLTGEMRRCVVHGKRSHRVF" ?
inactive

---
Entry "MMVVNRGDHQDGGEAYEVV" : reported amyloid nucleation score = ?
inactive

Quick check: amyloid nucleation score of "TIEFWGRVAGFLLM" ?
inactive

Which measured amyloid nucleation score value corresponds to "ELSYDRSKYSINSLWLGIPI" ?
inactive

----------
- run-description: amyloid nucleation score (Sup35N fusion, yeast selection) (log enrichment); library NNK3; higher = more nucleation; inactive = no reads after selection
readout: amyloid nucleation score

Entry "DYQTHLCSEGLALLMRKGSR" has what amyloid nucleation score?
inactive

For the substance shown here, "TIFGDCAEYSYVVLFINLFI" , give the reported amyloid nucleation score.
2.1

Suppose we examine the substance "VACITLCNIVQSIQMSIIMK" ; what amyloid nucleation score value has been reported?
1.45

Any idea what its amyloid nucleation score is? The substance is "VFVDYCNKYGEFVSGTAQVS"
inactive

I am curious: what amyloid nucleation score value has been reported for "FWNRWVVQVDSLSMRMSRVA" ?
inactive

***
Form field: reported amyloid nucleation score of "KTDTCRNIL"
inactive

Find the recorded amyloid nucleation score belonging to "LKLYTLLDRNSNKRTNAGMS" and report it.
-0.469

May I ask what amyloid nucleation score has been recorded for "KTSIRRCLSIRC" ?
inactive

What amyloid nucleation score value was documented for this substance, "RVVGRRSNYFVFLFRTLGRN" ?
inactive

So what does the record say about amyloid nucleation score for "FVPFERNKMIMKRICEVCVA" ?
0.97

Fill blank: measured amyloid nucleation score of the substance "ISRGVVIGTFRRLIERSCGT" is ____.
inactive
